Tested on: velvetleaf (Abutilon theophrasti)
method-description: Test C pre-/postemergence greenhouse test, plant response rating 0-100
Format: in vivo
condition-notes: Postemergence, 125 g ai/ha
# Plant response rating (0 to 100), Velvetleaf annotations
Output: the number by itself.

Reference set (4 entries):
{"record-smiles": "CCn1cc(C(=NN2CCCC2)c2ccccc2)c(-c2cc(Cl)cc(Cl)c2)n1", "assay-system": "velvetleaf (Abutilon theophrasti)", "test-result": 80}
{"record-smiles": "CCOC(OCC)(c1cccs1)c1c[nH]nc1-c1cc(Cl)cc(Cl)c1", "assay-system": "velvetleaf (Abutilon theophrasti)", "test-result": 70}
{"record-smiles": "Cn1cc(C(=NN2CCCC2)c2ccccc2)c(-c2cc(Cl)c(Cl)c(Cl)c2)n1", "assay-system": "velvetleaf (Abutilon theophrasti)", "test-result": 65}
{"record-smiles": "CCn1cc(C(=O)c2cccs2)c(-c2cc(Cl)cc(Cl)c2)n1", "assay-system": "velvetleaf (Abutilon theophrasti)", "test-result": 65}

Lookup: Identify Plant response rating (0 to 100), Velvetleaf associated with the molecule O=C(c1ccccc1)c1cn(S(=O)(=O)CCl)nc1-c1cc(Cl)cc(Cl)c1
Found: 75

Lookup: Identify Plant response rating (0 to 100), Velvetleaf associated with the molecule C=CCn1cc(C(=O)c2ccccc2)c(-c2cc(Cl)cc(Cl)c2)n1
Found: 70
